Test system: Fusobacterium nucleatum
Test: MIC of antibacterial agents alone and in combination with CK-4
Assay type: cell-based
Settings: F. nucleatum; with CK-4 6.25 μg/ml
# Lookup of reported MIC keyed by entry

| compound | assay.system | MIC |
| --- | --- | --- |
| CCCCc1ccc(O)c(-c2cc(CCCC)ccc2O)c1 | Fusobacterium nucleatum | 2.0 µg/mL |
| C=CCc1ccc(O)c(-c2ccc(O)c(CC=C)c2)c1 | Fusobacterium nucleatum | 1.0 µg/mL |
| C=CCc1ccc(O)c(-c2cc(CC=C)ccc2O)c1 | Fusobacterium nucleatum | 1.0 µg/mL |

## Task Would you kindly share the measured MIC for "Oc1cc(Cl)ccc1Oc1ccc(Cl)cc1Cl" ?
## Result 1.0 µg/mL
